# Method: Inhibition of self-mediated amyloid beta (1 to 42) aggregation at 20 uM after 48 hrs by thioflavin T fluorescence assay

- Smiles Str: "COc1ccc2cc3[n+](cc2c1NCCc1ccccc1)CCc1cc2c(cc1-3)OCO2"
  inhibition [%]: 92.2
- Smiles Str: "COc1ccc(CCNc2c(OC)ccc3cc4[n+](cc23)CCc2cc3c(cc2-4)OCO3)cc1OC"
  inhibition [%]: 70.1
- Smiles Str: "COc1ccc2cc3[n+](cc2c1NCCc1cccs1)CCc1cc2c(cc1-3)OCO2"
  inhibition [%]: 87.8
- Smiles Str: "COc1ccc2cc3[n+](cc2c1NCCc1ccc(Cl)cc1Cl)CCc1cc2c(cc1-3)OCO2"
  inhibition [%]: 93.6
- Smiles Str: "COc1ccc2cc3[n+](cc2c1NCCc1ccc(C)cc1)CCc1cc2c(cc1-3)OCO2"
  inhibition [%]: 94
- Smiles Str: "COc1ccc2cc3[n+](cc2c1NCCc1ccc([N+](=O)[O-])cc1)CCc1cc2c(cc1-3)OCO2"
  inhibition [%]: 82.6
- Smiles Str: "COc1ccc2cc3[n+](cc2c1NCCc1ccc(F)cc1)CCc1cc2c(cc1-3)OCO2"
  inhibition [%]: 90.4
- Smiles Str: "COc1ccc(CCNc2c(OC)ccc3cc4[n+](cc23)CCc2cc3c(cc2-4)OCO3)cc1"
  inhibition [%]: 91.1
- Smiles Str: "COc1ccc2cc3[n+](cc2c1NCCc1ccccc1C)CCc1cc2c(cc1-3)OCO2"
  inhibition [%]: 95
- Smiles Str: "COc1ccc2cc3[n+](cc2c1NCCc1cccc(C)c1)CCc1cc2c(cc1-3)OCO2"
  inhibition [%]: 93.6
- Smiles Str: "COc1ccc2cc3[n+](cc2c1OC)CCc1cc2c(cc1-3)OCO2"
  inhibition [%]: 36.3

* * *

# Method: Inhibition of self-mediated amyloid beta (1 to 42) aggregation at 10 uM after 48 hrs by thioflavin T fluorescence assay
Experimental Readout: inhibition (%)

- Smiles Str: "COc1ccc2cc3[n+](cc2c1NCCc1cccc(C)c1)CCc1cc2c(cc1-3)OCO2"
  Experimental Readout: "inhibition"
  Units: "%"
  Value: 79
- Smiles Str: "COc1ccc2cc3[n+](cc2c1NCCc1ccc(Cl)cc1Cl)CCc1cc2c(cc1-3)OCO2"
  Experimental Readout: "inhibition"
  Units: "%"
  Value: 81.3
- Smiles Str: "COc1ccc2cc3[n+](cc2c1NCCc1ccc(C)cc1)CCc1cc2c(cc1-3)OCO2"
  Experimental Readout: "inhibition"
  Units: "%"
  Value: 80
- Smiles Str: "COc1ccc(CCNc2c(OC)ccc3cc4[n+](cc23)CCc2cc3c(cc2-4)OCO3)cc1OC"
  Experimental Readout: "inhibition"
  Units: "%"
  Value: 54.1
- Smiles Str: "COc1ccc2cc3[n+](cc2c1NCCc1ccccc1)CCc1cc2c(cc1-3)OCO2"
  Experimental Readout: "inhibition"
  Units: "%"
  Value: 79.2
- Smiles Str: "COc1ccc2cc3[n+](cc2c1NCCc1ccc(F)cc1)CCc1cc2c(cc1-3)OCO2"
  Experimental Readout: "inhibition"
  Units: "%"
  Value: 76.3
- Smiles Str: "COc1ccc2cc3[n+](cc2c1NCCc1ccccc1C)CCc1cc2c(cc1-3)OCO2"
  Experimental Readout: "inhibition"
  Units: "%"
  Value: 80
- Smiles Str: "COc1ccc(CCNc2c(OC)ccc3cc4[n+](cc23)CCc2cc3c(cc2-4)OCO3)cc1"
  Experimental Readout: "inhibition"
  Units: "%"
  Value: 79
- Smiles Str: "COc1ccc2cc3[n+](cc2c1OC)CCc1cc2c(cc1-3)OCO2"
  Experimental Readout: "inhibition"
  Units: "%"
  Value: 8.9
- Smiles Str: "COc1ccc2cc3[n+](cc2c1NCCc1ccc([N+](=O)[O-])cc1)CCc1cc2c(cc1-3)OCO2"
  Experimental Readout: "inhibition"
  Units: "%"
  Value: 73.7
- Smiles Str: "COc1ccc2cc3[n+](cc2c1NCCc1cccs1)CCc1cc2c(cc1-3)OCO2"
  Experimental Readout: "inhibition"
  Units: "%"
  Value: 72.8
- Smiles Str: "COc1cc(/C=C/C(=O)CC(=O)/C=C/c2ccc(O)c(OC)c2)ccc1O"
  Experimental Readout: "inhibition"
  Units: "%"
  Value: 30.7

* * *

# Target: Acetylcholinesterase (Electrophorus electricus, UniProt O42275)
# Sequence (O42275 whole entry): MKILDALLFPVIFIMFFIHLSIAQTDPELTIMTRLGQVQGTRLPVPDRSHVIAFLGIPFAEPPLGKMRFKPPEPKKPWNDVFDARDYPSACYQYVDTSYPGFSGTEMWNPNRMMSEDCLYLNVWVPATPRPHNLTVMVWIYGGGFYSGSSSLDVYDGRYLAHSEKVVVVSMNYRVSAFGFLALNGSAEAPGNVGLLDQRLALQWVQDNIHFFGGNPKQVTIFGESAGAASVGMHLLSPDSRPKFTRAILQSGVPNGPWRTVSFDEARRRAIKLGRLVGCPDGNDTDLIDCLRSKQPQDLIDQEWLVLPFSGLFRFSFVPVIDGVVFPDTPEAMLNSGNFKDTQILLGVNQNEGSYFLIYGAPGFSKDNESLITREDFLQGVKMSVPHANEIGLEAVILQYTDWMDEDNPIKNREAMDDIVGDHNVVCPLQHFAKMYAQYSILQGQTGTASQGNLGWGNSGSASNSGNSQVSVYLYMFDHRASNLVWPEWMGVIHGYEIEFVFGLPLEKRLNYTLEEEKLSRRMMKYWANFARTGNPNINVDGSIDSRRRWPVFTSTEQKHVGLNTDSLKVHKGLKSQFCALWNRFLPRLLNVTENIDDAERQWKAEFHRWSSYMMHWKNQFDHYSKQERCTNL
Experimental Readout: IC50 (nM)

- Smiles Str: "COc1ccc2cc3[n+](cc2c1NCCCc1ccccc1)CCc1cc2c(cc1-3)OCO2"
  Value: 680
- Smiles Str: "COc1ccc2cc3[n+](cc2c1NCCc1ccccn1)CCc1cc2c(cc1-3)OCO2"
  Value: 1160
- Smiles Str: "COc1ccc2cc3[n+](cc2c1NCCc1ccc(C)cc1)CCc1cc2c(cc1-3)OCO2"
  Value: 449
- Smiles Str: "COc1ccc2cc3[n+](cc2c1NCCc1ccc(Cl)cc1Cl)CCc1cc2c(cc1-3)OCO2"
  Value: 130
- Smiles Str: "COc1ccc2cc3[n+](cc2c1NCCc1cccc(C)c1)CCc1cc2c(cc1-3)OCO2"
  Value: 91
- Smiles Str: "COc1ccc(CCNc2c(OC)ccc3cc4[n+](cc23)CCc2cc3c(cc2-4)OCO3)cc1"
  Value: 990
- Smiles Str: "COc1ccc2cc3[n+](cc2c1NCCc1ccc([N+](=O)[O-])cc1)CCc1cc2c(cc1-3)OCO2"
  Value: 693
- Smiles Str: "COc1ccc2cc3[n+](cc2c1NCC(C)C)CCc1cc2c(cc1-3)OCO2"
  Value: 1140
- Smiles Str: "COc1ccc2cc3[n+](cc2c1NCCCCCOc1ccccc1)CCc1cc2c(cc1-3)OCO2"
  Value: 1090
- Smiles Str: "COc1ccc2cc3[n+](cc2c1NCCc1ccc(F)cc1)CCc1cc2c(cc1-3)OCO2"
  Value: 238
- Smiles Str: "COc1ccc2cc3[n+](cc2c1NCCc1ccccc1)CCc1cc2c(cc1-3)OCO2"
  Value: 209
- Smiles Str: "COc1ccc2cc3[n+](cc2c1NCCc1cccs1)CCc1cc2c(cc1-3)OCO2"
  Value: 608
- Smiles Str: "COc1ccc2cc3[n+](cc2c1NCc1ccccc1)CCc1cc2c(cc1-3)OCO2"
  Value: 936
- Smiles Str: "COc1ccc2cc3[n+](cc2c1NCCCCOc1cccnc1)CCc1cc2c(cc1-3)OCO2"
  Value: 1170
- Smiles Str: "COc1ccc2[nH]cc(CCNc3c(OC)ccc4cc5[n+](cc34)CCc3cc4c(cc3-5)OCO4)c2c1"
  Value: 1260
- Smiles Str: "COc1ccc2cc3[n+](cc2c1NCCCCCCOc1ccccc1)CCc1cc2c(cc1-3)OCO2"
  Value: 1420
- Smiles Str: "COc1ccc2cc3[n+](cc2c1NCCCOc1ccccc1)CCc1cc2c(cc1-3)OCO2"
  Value: 588
- Smiles Str: "COc1ccc2cc3[n+](cc2c1NCCCN(C)C)CCc1cc2c(cc1-3)OCO2"
  Value: 576
- Smiles Str: "COc1ccc2cc3[n+](cc2c1NCCc1ccccc1C)CCc1cc2c(cc1-3)OCO2"
  Value: 27

* * *

Endpoint: IC50. System: Cholinesterase (Equus caballus, UniProt P81908). Items follow.
Sequence (P81908 whole entry): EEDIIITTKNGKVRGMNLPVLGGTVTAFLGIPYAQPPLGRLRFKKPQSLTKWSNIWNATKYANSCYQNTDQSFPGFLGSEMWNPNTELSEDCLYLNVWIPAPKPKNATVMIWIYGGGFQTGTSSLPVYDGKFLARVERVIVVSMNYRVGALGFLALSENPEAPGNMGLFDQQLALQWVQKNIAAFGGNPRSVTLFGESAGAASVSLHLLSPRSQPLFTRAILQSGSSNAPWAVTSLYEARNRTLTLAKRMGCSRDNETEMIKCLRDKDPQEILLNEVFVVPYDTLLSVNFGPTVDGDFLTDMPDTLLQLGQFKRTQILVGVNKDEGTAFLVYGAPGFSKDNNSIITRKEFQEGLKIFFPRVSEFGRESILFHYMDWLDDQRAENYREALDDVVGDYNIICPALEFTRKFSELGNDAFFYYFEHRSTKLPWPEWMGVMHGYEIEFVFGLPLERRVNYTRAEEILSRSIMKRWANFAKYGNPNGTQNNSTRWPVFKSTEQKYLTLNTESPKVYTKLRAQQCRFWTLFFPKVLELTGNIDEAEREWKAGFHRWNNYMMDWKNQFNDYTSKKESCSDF
Experimental Readout: IC50 (nM)

- Compound: "COc1ccc2cc3[n+](cc2c1NCCc1ccccc1C)CCc1cc2c(cc1-3)OCO2"
  Value: 713
- Compound: "COc1ccc2cc3[n+](cc2c1NCCc1ccc(C)cc1)CCc1cc2c(cc1-3)OCO2"
  Value: 821
- Compound: "COc1ccc2cc3[n+](cc2c1NCCCc1ccccc1)CCc1cc2c(cc1-3)OCO2"
  Value: 785
- Compound: "COc1ccc2cc3[n+](cc2c1NCCc1ccc(Cl)cc1Cl)CCc1cc2c(cc1-3)OCO2"
  Value: 424
- Compound: "COc1ccc2cc3[n+](cc2c1NCCc1ccccn1)CCc1cc2c(cc1-3)OCO2"
  Value: 2500
- Compound: "COc1ccc2cc3[n+](cc2c1NCCCCOc1ccccc1)CCc1cc2c(cc1-3)OCO2"
  Value: 1200
- Compound: "COc1ccc2cc3[n+](cc2c1NCCc1cccc(C)c1)CCc1cc2c(cc1-3)OCO2"
  Value: 674
- Compound: "COc1ccc2cc3[n+](cc2c1NCCc1ccc([N+](=O)[O-])cc1)CCc1cc2c(cc1-3)OCO2"
  Value: 841
- Compound: "COc1ccc2cc3[n+](cc2c1NCCCCOc1cccc2ccccc12)CCc1cc2c(cc1-3)OCO2"
  Value: 511
- Compound: "COc1ccc2cc3[n+](cc2c1NCCCCOc1cccnc1)CCc1cc2c(cc1-3)OCO2"
  Value: 2940
- Compound: "COc1ccc(CCNc2c(OC)ccc3cc4[n+](cc23)CCc2cc3c(cc2-4)OCO3)cc1"
  Value: 2880
- Compound: "COc1ccc2cc3[n+](cc2c1NCCCN(C)C)CCc1cc2c(cc1-3)OCO2"
  Value: 6320
- Compound: "COc1ccc2cc3[n+](cc2c1NCCc1ccc(F)cc1)CCc1cc2c(cc1-3)OCO2"
  Value: 445
- Compound: "COc1ccc2cc3[n+](cc2c1NCCc1ccccc1)CCc1cc2c(cc1-3)OCO2"
  Value: 406
- Compound: "COc1ccc2cc3[n+](cc2c1NCCCCCOc1ccccc1)CCc1cc2c(cc1-3)OCO2"
  Value: 1560
- Compound: "COc1ccc2cc3[n+](cc2c1NCC(C)C)CCc1cc2c(cc1-3)OCO2"
  Value: 2020
- Compound: "COc1ccc2[nH]cc(CCNc3c(OC)ccc4cc5[n+](cc34)CCc3cc4c(cc3-5)OCO4)c2c1"
  Value: 1390
- Compound: "COc1ccc(CCNc2c(OC)ccc3cc4[n+](cc23)CCc2cc3c(cc2-4)OCO3)cc1OC"
  Value: 5820
- Compound: "COc1ccc2cc3[n+](cc2c1NCCCOc1ccccc1)CCc1cc2c(cc1-3)OCO2"
  Value: 216
- Compound: "COc1ccc2cc3[n+](cc2c1NCc1ccccc1)CCc1cc2c(cc1-3)OCO2"
  Value: 2280
- Compound: "COc1ccc2cc3[n+](cc2c1NCCc1cccs1)CCc1cc2c(cc1-3)OCO2"
  Value: 555
- Compound: "COc1ccc2cc3[n+](cc2c1NCCCCCCOc1ccccc1)CCc1cc2c(cc1-3)OCO2"
  Value: 1300
- Compound: "COc1ccc2cc3[n+](cc2c1NCCOc1ccccc1)CCc1cc2c(cc1-3)OCO2"
  Value: 727
- Compound: "COc1ccc2cc3[n+](cc2c1NC(C)c1ccccc1)CCc1cc2c(cc1-3)OCO2 (centres undefined)"
  Value: 3280
